Target: T1, cynomolgus monkey DLL4 extracellular domain (cynomolgus monkey)
T1 construct: extracellular domain; also called cynoDLL4 ECD; Cyno DLL4
Experiment: binding ELISA
Procedure: Plates were then washed 3 times. 100 μl/well of recombinant rat/human chimeric or recombinant human anti-DLL4 antibodies were then added to the plate (0.00164-27 nM, 4-fold serial dilution in ELISA buffer=PBST, 10% Superblock (Pierce #37515)) for 1 hour at 25° C. with shaking and then washed again 3 times. […] The reaction was stopped after 8 minutes at 25° C. with 100 μl/well 1N HCl and the absorbance was read at 450 nm. Data were analyzed using Graphpad Prism software, and EC50 values were reported. […]
observation.type: EC50 (pM)
Supply the numeric figure in pM, leaving out any unit text.

query: Indicate the recorded EC50 value for this binder: h1A11.12 (antibody, V domains shown, humanized IgG; also called VH.1b/VL.2a 1A11) VH: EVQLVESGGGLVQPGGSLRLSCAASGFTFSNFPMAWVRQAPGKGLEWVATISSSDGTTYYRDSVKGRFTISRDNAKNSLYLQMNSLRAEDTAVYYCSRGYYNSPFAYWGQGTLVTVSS VL: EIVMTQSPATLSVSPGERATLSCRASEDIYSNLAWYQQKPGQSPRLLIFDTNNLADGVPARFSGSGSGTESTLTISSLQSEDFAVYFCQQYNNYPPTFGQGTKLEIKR
result: 160
